FYI, the data here is from ChEMBL document CHEMBL1126967.

Test system: CCRF-CEM
Assay: Compound tested in vitro for inhibition of cytopathic activity of AZT-resistant HIV-1 on T4 lymphocytes (CEM cells)
Type: functional, cell-based
Conditions: Homo sapiens
Result Type: EC50 (nM)
Kindly provide the numeric value in nM only, without the unit symbol.

Give CCRF-CEM EC50 for the following molecule: COc1ccc2c(c1)OCC1c3cc(O)c(OCc4ccccc4)cc3OC21 (stereo unspecified) 1300

###

Test system: CCRF-CEM
Experiment: Compound tested in vitro for inhibition of cytopathic activity of AZT-sensitive HIV-1 on T4 lymphocytes (CEM cells)
Type: functional, cell-based
Settings: Homo sapiens
Result Type: pEC50
API: returns pEC50 as number; meaning -log10 of concentration in mol/L.

Let me know recorded pEC50 for COc1ccc2c(c1)OCC1c3cc(O)c(OCc4ccccc4)cc3OC21 (stereo unspecified) , thanks. 5.44
